Entry source: PubChem BioAssay (EPA / NIEHS)

Read-out: Human Leukocyte Antigen - DR isotype (HLADR), HLA-DRA (gene 3122)
method: BSK_BE3C_HLADR: BioMAP Diversity Plus: BE3C Assay for Human Leukocyte Antigen - DR isotype (HLADR) Biomarker Activity (AID 2283032)
settings: primary human bronchial epithelial cells; actives raise or lower the signal
The source made the active and inactive calls. Rule for the calls: active = hit-call score of the fitted dose curve at least 0.9, where 1 is the maximum; inactive = score below 0.9.
Select the correct class. Options are active, inactive and nothing else.

Solved cases (2 shown):
COc1ccc([N+](=O)[O-])cc1N :: inactive
CN(C)C=O :: inactive

Query: Outcome logged for Cc1cc(C)c(O)c(C)c1 in this assay:
Response: inactive

Query: Outcome logged for CCc1ccc(CCOc2ccc(CC3SC(=O)NC3=O)cc2)nc1 (stereo unspecified) in this assay:
Response: inactive

Query: Outcome logged for CCCCCCCCOC(=O)CCCCCCCCC(=O)OCCCCCCCC in this assay:
Response: inactive

Query: Outcome logged for CC[C@H](c1ccc(O)cc1)[C@@H](CC)c1ccc(O)cc1 in this assay:
Response: active

====

Read-out: Interleukin-6 (IL6), IL6 (gene 3569)
method: BSK_CASM3C_IL6: BioMAP Diversity Plus: CASM3C Assay for Interleukin-6 (IL6) Biomarker Activity for (AID 2283040)
settings: primary human coronary artery smooth muscle cells; actives raise or lower the signal
The source made the active and inactive calls. Rule for the calls: active = hit-call score of the fitted dose curve at least 0.9, where 1 is the maximum; inactive = score below 0.9.
measuredQuantity: AC50

Worked cases, AC50 given:
CCC(C)(C)C1CCC(O)CC1 (stereo not drawn) :: inactive
FC(F)(I)C(F)(F)C(F)(F)C(F)(F)C(F)(F)C(F)(F)I :: 35.9 µM (active) [middle of 5 runs]
CCCCC(CC)COC(=O)CCCCC(=O)OCC(CC)CCCC (stereo not drawn) :: inactive
COCC(C)OCC(C)O (stereo not drawn) :: inactive
CCCCCCCCCCCCCC[N+](C)(C)C :: 9.39 µM (active)
CCOC(=O)CC(O)(CC(=O)OCC)C(=O)OCC :: inactive

Query: Give recorded AC50. c1ccc2c(c1)Cc1ccccc1-2
Response: inactive

Query: Give recorded AC50. O=C(O)c1ccccc1C(c1ccc(O)cc1)c1ccc(O)cc1
Response: inactive

====

Read-out: E-selectin (Homo sapiens)
method: BSK_3C_Eselectin: BioMAP Diversity Plus: 3C Assay for Eselectin Biomarker Activity (AID 2283015)
settings: primary human endothelial cells (HUVEC); actives raise or lower the signal
The source made the active and inactive calls. The calls were made as follows: active = hit-call score of the fitted dose curve at least 0.9, where 1 is the maximum; inactive = score below 0.9.
measuredQuantity: AC50

Worked cases, AC50 given:
COCC(C)O (centres undefined) :: inactive
NC(=O)N1C(=O)C(C(=O)c2cc(Cl)cs2)c2cc(F)c(Cl)cc21 (centres undefined) :: inactive
CN(C)C=O :: inactive
O=C(O)Cc1cc(I)c(Oc2cc(I)c(O)c(I)c2)c(I)c1 :: inactive
Oc1cccc(O)c1 :: inactive

Query: Give recorded AC50. CCCCCCCCCCCCCC[N+](C)(C)C
Response: 8.8 µM (active)

Query: Give recorded AC50. CCC(=C(c1ccc(O)cc1)c1ccc(OCCN(C)C)cc1)c1ccccc1
Response: 11.1 µM (active)

Query: Give recorded AC50. CC(=O)NC1(c2cccc(F)c2)CCN(CC[C@@]2(c3ccc(Cl)c(Cl)c3)CN(c3ccccc3)C(=O)CO2)CC1
Response: 30.7 µM (active)

Query: Give recorded AC50. Cc1oc(-c2ccccc2)nc1CCOc1ccc(C[C@H](Nc2ccccc2C(=O)c2ccccc2)C(=O)O)cc1
Response: 31.1 µM (active)
